- ASSAY OVERVIEW: Absorption and fluorescence emission spectra in DMF
- Assay type: physicochemical
- MEASUREMENT SETUP: in DMF
VALUE TYPE: ε, extinction coefficient

Exercise: Please indicate ε, extinction coefficient recorded for COCCOCCOCCOCCOc1ccc(OCCOCCOCCOCCOC)c2c1C1=NC2=Nc2c3ccccc3c3[n]2[Zn][n]2c(c4ccccc4c2=N1)=NC1=NC(=N3)c2ccccc21
Solution: 82 550 M^–1cm^–1

Exercise: Tell me ε, extinction coefficient reported for O=S(=O)([O-])c1cc(S(=O)(=O)[O-])c2cc(Oc3cccc4c3C3=NC4=Nc4c5c(Oc6ccc7cc(S(=O)(=O)[O-])cc(S(=O)(=O)[O-])c7c6)cccc5c5[n]4[Zn][n]4c(c6cccc(Oc7ccc8cc(S(=O)(=O)[O-])cc(S(=O)(=O)[O-])c8c7)c6c4=NC4=NC(=N5)c5c(Oc6ccc7cc(S(=O)(=O)[O-])cc(S(=O)(=O)[O-])c7c6)cccc54)=N3)ccc2c1.[Na+].[Na+].[Na+].[Na+].[Na+].[Na+].[Na+].[Na+]
Solution: 109 950 M^–1cm^–1
